System: HEK-293T
assay summary: Multiplex assay against HEK293T
Assay type: toxicity, cell-based
cond: human, 48 h, 1 µM, compound concentration 1 uM, replicate 1
Recorded Population Mitotic Cells (%) for the following molecules

molecule: CN1C(=O)[C@@H](NC(=O)c2cc3ccccc3[nH]2)N=C(c2ccccc2)c2ccccc21 [DEVAZEPIDE]
Population Mitotic Cells (%): 50%
--
molecule: C[C@@H](Oc1cc(-n2cnc3ccc(CN4CCN(C)CC4)cc32)sc1C(N)=O)c1ccccc1C(F)(F)F [GSK-461364]
Population Mitotic Cells (%): 33%
--
molecule: CC(C)[C@H](CO)Nc1nc(Nc2cccc(Cl)c2)c2ncn(C(C)C)c2n1 [PURVALANOLA]
Population Mitotic Cells (%): 50%
--
molecule: CN(c1cc(C(F)(F)F)nc(OCCC(=O)O)n1)c1cccc2c1CCC2
Population Mitotic Cells (%): 54%
--
molecule: Oc1cccc(-c2nc(N3CCOCC3)c3oc4ncccc4c3n2)c1 [PI-103]
Population Mitotic Cells (%): 43%
--
molecule: CC(C)C[C@H](NC(=O)[C@H](Cc1ccccc1)NC(=O)CNC(=O)CNC(=O)[C@@H](N)Cc1ccc(O)cc1)C(=O)O [ENKEPHALIN]
Population Mitotic Cells (%): 51%
--
molecule: C=CC(=O)Nc1cc(-n2c(=O)ccc3cnc4ccc(-c5ccc(NS(C)(=O)=O)cc5)cc4c32)ccc1C
Population Mitotic Cells (%): 54%
